Tested on: OVCAR-4 ovarian
Assay: NCI tumour cell line growth inhibition, 48 h
Would you mind telling me the reported GI50 of each entry?

O=C(Nc1nc(-c2ccc(Cl)cc2)cs1)c1cc(O)c(O)c(O)c1 | 142 µM
CC12OC(CC(O)C1O)n1c3ccccc3c3c4c(c5c6ccccc6n2c5c31)C(=O)N(CCN1CCOCC1)C4=O (centres undefined) | 2.2 µM
COC(=O)C1C(C(=O)O)C2(c3ccccc3)C(=O)C1(c1ccccc1)C(c1ccccc1)=C2c1ccccc1 (centres undefined) | 15.3 µM
CN(C)c1ccc(/C=C(\C#N)c2cc3ccccc3[nH]2)cc1 | 3.75 µM
O=C(Oc1ccccc1)N(c1ccccc1)c1ccccc1 | 25.1 µM
COC(=O)[C@]12CC[C@@H](C)[C@H](C)[C@@H]1C1=CC[C@@H]3[C@@]4(C)C(C=O)=C[C@@](C)(CO)[C@@H]4[C@H](O)C[C@@]3(C)[C@]1(C)CC2 | 4.17 µM
COc1ccc(Oc2nc3cc(N)cc(N)c3nc2-c2ccccc2)cc1 | 3.75 µM
CCCCC(=O)N(c1ccc(Nc2c3ccccc3nc3cc([N+](=O)[O-])ccc23)cc1)S(C)(=O)=O | 11.1 µM

Here's the next entry for you.
In: Missing value: GI50, OVCAR-4 ovarian, entry `Nc1[nH]nc2nc(-c3cc(Cl)ccc3Cl)cc(-c3ccc(F)cc3)c12` . Fill in?
Out: 39.2 µM

The measured values listed here are drawn from PubChem BioAssay (NCI).
